Each entry below lists one item and its recorded % of WT binding value.
- experimental.system: Full length LIGHT G188A on HEK293FF cells (Homo sapiens (Human), UniProt O43557 1-240)
- Sequence (O43557 whole entry G188A): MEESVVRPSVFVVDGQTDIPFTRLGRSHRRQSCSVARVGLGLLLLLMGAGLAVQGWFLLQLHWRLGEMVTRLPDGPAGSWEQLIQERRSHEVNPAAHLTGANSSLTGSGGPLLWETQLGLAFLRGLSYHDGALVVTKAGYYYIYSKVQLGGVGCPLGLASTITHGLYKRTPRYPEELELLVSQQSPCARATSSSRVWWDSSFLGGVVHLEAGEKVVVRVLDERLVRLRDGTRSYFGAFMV
- assay: flow cytometry, HEK293FF, mAb at EC50
- Protocol: The day of transfection the cells were seeded in a 24-well plate at 0.6×10⁶ cells/well. […] The cells were then washed as above, resuspended in 100 μl of FACS buffer and binding of the antibodies to the constructs was measured using flow cytometry and a total of 10,000 cells were acquired for each sample. […]
Numeric answer plus unit only.

Solved cases below.
Can you look up the measured % of WT binding of 3D12 chimeric IgG4 mAb (antibody, V domains shown, Chimeric human IgG4 (S-to-P, L-to-E) with human CL, as m1; also called Parental 3D12; 03D12) VH: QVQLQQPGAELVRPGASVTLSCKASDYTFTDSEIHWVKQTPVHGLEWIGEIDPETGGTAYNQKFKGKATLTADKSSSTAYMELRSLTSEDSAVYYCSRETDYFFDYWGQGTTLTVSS VL: DIQMTQSPASLSASVGETVTITCGASENIYGALNWYQRKQGKSPQLLIYGATNLADGMSSRFSGSGSGRQYSLKISSLHPDDVATYYCQNVLSTPWTFGGGTKLEIK for me? 20%

Can you look up the measured % of WT binding of 3A07 chimeric IgG4 mAb (antibody, V domains shown, Chimeric human IgG4 (S-to-P, L-to-E) with human CL, as m1; also called Parental 3A07) VH: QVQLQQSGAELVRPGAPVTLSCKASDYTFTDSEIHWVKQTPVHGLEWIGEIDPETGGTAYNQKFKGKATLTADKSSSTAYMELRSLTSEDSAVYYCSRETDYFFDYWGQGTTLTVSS VL: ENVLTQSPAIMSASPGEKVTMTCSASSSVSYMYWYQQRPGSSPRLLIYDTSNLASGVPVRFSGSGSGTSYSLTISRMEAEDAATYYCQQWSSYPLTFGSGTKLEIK for me? 5%

Can you look up the measured % of WT binding of 3C10 chimeric IgG4 mAb (antibody, V domains shown, Chimeric human IgG4 (S-to-P, L-to-E) with human CL, as m1; also called Parental 3C10) VH: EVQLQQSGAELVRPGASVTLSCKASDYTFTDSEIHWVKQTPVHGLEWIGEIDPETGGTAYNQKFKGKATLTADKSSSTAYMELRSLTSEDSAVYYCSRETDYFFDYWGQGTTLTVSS VL: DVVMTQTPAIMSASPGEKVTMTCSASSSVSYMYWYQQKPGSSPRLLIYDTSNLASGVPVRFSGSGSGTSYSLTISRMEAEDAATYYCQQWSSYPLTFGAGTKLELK for me? 3%

Can you look up the measured % of WT binding of 3B04 chimeric IgG4 mAb (antibody, V domains shown, also called Parental 3B04) VH: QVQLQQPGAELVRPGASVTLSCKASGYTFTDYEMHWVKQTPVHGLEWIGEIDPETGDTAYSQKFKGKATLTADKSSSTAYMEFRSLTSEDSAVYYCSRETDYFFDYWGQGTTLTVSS VL: DIQMTQTPASLSASVGETVTITCGASENIYGALNWYQRKQGKSPQLLIYGATNLADGMSSRFSGSGSGRQYSLKISSLHPDDFATYYCQNVLTTPWTFGGGTKLEIK for me? 6%

Now for the binder whose % of WT binding we want.
Can you look up the measured % of WT binding of 2B11 chimeric IgG4 mAb (antibody, V domains shown, Chimeric human IgG4 (S-to-P, L-to-E) with human CL, as m1; Often misprinted 2B111; also called Parental 2B11; 2B111) VH: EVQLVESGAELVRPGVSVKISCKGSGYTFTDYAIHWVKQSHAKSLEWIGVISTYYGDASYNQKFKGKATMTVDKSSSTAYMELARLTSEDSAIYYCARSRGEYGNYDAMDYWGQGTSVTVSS VL: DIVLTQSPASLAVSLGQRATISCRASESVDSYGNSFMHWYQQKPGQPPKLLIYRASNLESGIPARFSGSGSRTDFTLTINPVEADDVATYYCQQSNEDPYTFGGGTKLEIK for me? 3%
